This collection of values is drawn from ChEMBL document CHEMBL1201862.

System: MDA-MB-435
PROTOCOL DETAILS: NCI tumour cell line growth inhibition, 48 h
Active and inactive are the calls of the source. Cut-off read from the data, not from the text of the source: active = GI50 up to about 1.1 µM and inactive = higher.
Below, each entry is listed alongside its reported GI50.
MEASUREMENT KIND: GI50

| MOLECULE | VALUE MEASURED |
| --- | --- |
| CC(C)(C)OC(=O)NCC(=O)NC1C/C(=N\O)c2sccc21 (stereo unspecified) | > 100 µM (inactive) |
| COc1cc2nc3n(c(=O)c2cc1OC)-c1ccc([N+](=O)[O-])cc1C3=O | 19.4 µM (inactive) |
| O=C(N/N=C\c1ccc([N+](=O)[O-])cc1)Nc1ccc2ccccc2c1 | 34.2 µM (inactive) |
| CCOC(=O)c1cn2c(n1)sc1cc(F)ccc12 | 42.3 µM (inactive) |
| C=CCOC(=O)C[C@H](NC(=O)[C@H](Cc1ccc(O)cc1)NCC(F)(F)F)C(=O)OCC=C | 41.3 µM (inactive) |
| O=C1c2ccccc2C(=O)N1CC(O)COc1cccc2ccccc12 (stereo unspecified) | > 100 µM (inactive) |

----------
System: CAKI-1
PROTOCOL DETAILS: NCI tumour cell line growth inhibition, 48 h
Active and inactive are the calls of the source. Cut-off read from the data, not from the text of the source: active = GI50 up to about 1.1 µM and inactive = higher. Positions of bridges follow the written chain, without caps; N, C: chain ends. Residues, ends and D or L forms follow the SMILES beside them.
MEASUREMENT KIND: GI50

| MOLECULE | VALUE MEASURED |
| --- | --- |
| COC(=O)C1CCC(=O)NCCCCC(NC(=O)C(N)CC(=O)O)C(=O)N1 (stereo not drawn) (H-Asp-Lys-Glu-OMe; lactam 2-3; configuration not given here) | 82 µM (inactive) |
| COc1cc(C(c2cccc3ccccc23)N2C(=O)CCC2C(=O)O)cc(OC)c1OC (centres undefined) | > 100 µM (inactive) |
| CN1C(=O)N(C)C2(CCN(CCCCCCF)CC2)C1=O | > 100 µM (inactive) |
| COc1cc(OC)c2c(c1)C(=O)C(CC(C)O)=CC2=O (centres undefined) | 20.1 µM (inactive) |
| Cc1ccc(NC(=O)COC(=O)c2cccc3c(=O)c4ccccc4[nH]c23)cc1 | 29.2 µM (inactive) |
| C[C@H]1C(=O)O[C@@H]1[C@H]1COC(C)(C)O1 | > 100 µM (inactive) |
| CCO/C([O-])=C(\C(=O)c1ccccc1)[n+]1c(C)n(C)c2ccccc21 | > 100 µM (inactive) |
| N[C@H](C(=O)O)[C@@H]1CC(Cl)=NO1 | 2.52 µM (inactive) |
| O=C1/C(=C/c2cccc([N+](=O)[O-])c2)Sc2scc(-c3ccc([N+](=O)[O-])cc3)[n+]21 | 20.6 µM (inactive) |

----------
Tested on: SK-MEL-2
PROTOCOL DETAILS: NCI tumour cell line growth inhibition, 48 h
Activity calls are given as the source filed them. Cut-off read from the data, not from the text of the source: active = GI50 up to about 1.1 µM and inactive = higher.
MEASUREMENT KIND: GI50

| COMPOUND | MEASUREMENT KIND | VALUE MEASURED |
| --- | --- | --- |
| COc1ccc(NC=O)c(C(=O)CCNC(C)=O)c1 | GI50 | > 100 µM (inactive) |
| C/C(=C\c1ccccc1)C(O)S(=O)(=O)O (centres undefined) | GI50 | > 100 µM (inactive) |
| Cc1ccc(S(=O)(=O)N/N=C/c2oc(-c3ccncc3)c(-c3ccncc3)c2[N+](=O)[O-])cc1 | GI50 | > 100 µM (inactive) |
| C[C@@H]1CC[C@]2(C)C3(C)CC[C@]2(OC3=O)[C@@]12CC(c1ccoc1)OC2=O (some centres undefined) | GI50 | 58.6 µM (inactive) |
| Clc1ccc(C[P+](c2ccccc2)(c2ccccc2)c2ccccc2)c(Cl)c1 | GI50 | 2.18 µM (inactive) |
| Cc1ccc(/C=C2\Sc3scc(-c4ccccc4)[n+]3C2=O)cc1 | GI50 | 24.1 µM (inactive) |
| C=CC1(C)CCC2C(=CCC3C(C)(COC4OC(C(=O)O)C(O)C(O)C4O)C(O)CCC23C)C1.C=CC1(C)CCC2C(=CCC3C2(C)CC(O)C(O)C3(C)COC2OC(C(=O)O)C(O)C(O)C2O)C1 (centres undefined) | GI50 | > 100 µM (inactive) |
| Cc1[nH]c2ccccc2c1C1CC(=O)NC1=O (centres undefined) | GI50 | > 100 µM (inactive) |
| CCOC(=O)C1=C(NC)OC/C1=N\NC(=O)c1ccccc1O | GI50 | 12.8 µM (inactive) |
| COc1c(CC(C)=O)ccc2c1C(=O)c1ccc(C=O)c(OC(C)=O)c1C2=O | GI50 | 15.2 µM (inactive) |
| C=C(CCCCC)CN1CCCC1[C@@](C)(O)CC(=O)OCC (some centres undefined) | GI50 | > 100 µM (inactive) |
| CC(=O)OC1C[C@@H](C)C2(C[C@H](O)c3ccoc3)C(=O)OC[C@]13C2CCC(O)C31CO1 (some centres undefined) | GI50 | > 100 µM (inactive) |
| COc1c2c(c(OC)c3c(=O)cc(C/C(=N/NC(=O)C[n+]4ccccc4)C(=O)Nc4cc(C)ccc4C)oc13)OCO2 | GI50 | > 100 µM (inactive) |
| CCOC(=O)Cc1ccc2c(c1O)C(=O)c1c(ccc(CC(=O)OCC)c1O)C2=O | GI50 | > 100 µM (inactive) |
| CC1CC(=O)N(N(C)C)C(C#N)(C#N)C1(C#N)C#N (centres undefined) | GI50 | 25.5 µM (inactive) |
| COc1ccc(C[C@@H]2CN(C(=O)c3ccccc3)[C@H](Cc3ccc(O)cc3)CN2C(=O)c2ccccc2)cc1Br | GI50 | > 100 µM (inactive) |
| C/C=C1\CN2CCc3c([nH]c4ccccc34)C2C=C1CCO (centres undefined) | GI50 | > 340 µM (inactive) |
| CCCC[P+](CCCC)(CCCC)C(C(=O)OC)C(C(=O)OC)=C1SC(C(=O)OC)=C(C(=O)OC)S1 (centres undefined) | GI50 | > 100 µM (inactive) |
| CN(C)c1ccc(NN=C2SC(=N\c3ccccc3)/C(=N/c3ccccc3)S2)cc1 | GI50 | 13.6 µM (inactive) |
| Cc1cccc2oc3c(c(=O)c12)CC(O)C(C)(C)O3 (centres undefined) | GI50 | > 100 µM (inactive) |
| O=C1/C(=C/c2cccc([N+](=O)[O-])c2)Sc2scc(-c3ccc([N+](=O)[O-])cc3)[n+]21 | GI50 | 20.2 µM (inactive) |
| O=C1C/C(=N/c2ccc(Cl)cc2)C(c2ccccc2)N1c1ccccc1 (centres undefined) | GI50 | 2.7 µM (inactive) |
| NS(=O)(=O)c1ccc(NC(=O)c2cccc3c(Nc4ccc(S(N)(=O)=O)cc4)c4ccccc4nc23)cc1 | GI50 | 20 µM (inactive) |
| CN(C)CCCc1c2ccccc2nc2ccc(Cl)cc12 | GI50 | 19.9 µM (inactive) |
| COc1ccc(/C(CCl)=C(\Nc2ccccc2)c2ccc(OC)c(OC)c2)cc1OC | GI50 | > 100 µM (inactive) |
| O=C1CC[C@@]2(O)[C@H]3Cc4ccc(-c5ccccc5)c5c4[C@@]2(CCN3CC2CC2)[C@H]1O5 | GI50 | 17.9 µM (inactive) |
| COc1ccc(CCCCl)c(C2=NCCc3ccccc32)c1 | GI50 | 61.7 µM (inactive) |
| CCOC(=O)NC(Nc1ncccn1)(C(=O)OCC)C(F)(F)F (centres undefined) | GI50 | > 100 µM (inactive) |
| O=C1c2nn(-c3ccccc3)nc2C(c2ccccc2)N1c1ccccc1 (centres undefined) | GI50 | > 100 µM (inactive) |
